Reported Activity values follow for various compounds
- ASSAY SUMMARY: Reversal of multi-drug resistance in human KVB cells assessed as increase in PTX-induced cytotoxicity by measuring cell survival at 10 uM measured after 72 hrs incubation in presence of 100 nM paclitaxel by MTT assay relative to control
- Type: functional, KBV
Write the quantity with the unit trailing the number.

[
  {
    "LINE NOTATION": "CC(C)(C)OC(=O)N1C[C@H](O)C[C@H]1C(=O)N[C@H]1CC[C@]2(C)[C@H]3C[C@@H](O)[C@@H]4[C@@H]([C@]5(C)CC[C@H](C(C)(C)O)O5)CC[C@@]4(C)[C@]3(C)CC[C@H]2C1(C)C",
    "REPORTED RESULT": "93%"
  },
  {
    "LINE NOTATION": "CC(=O)N1CCC[C@H]1C(=O)N[C@H]1CC[C@]2(C)[C@H]3C[C@@H](O)[C@@H]4[C@@H]([C@]5(C)CC[C@H](C(C)(C)O)O5)CC[C@@]4(C)[C@]3(C)CC[C@H]2C1(C)C",
    "REPORTED RESULT": "63%"
  },
  {
    "LINE NOTATION": "CC1(C(=O)N[C@H]2CC[C@]3(C)[C@H]4C[C@@H](O)[C@@H]5[C@@H]([C@]6(C)CC[C@H](C(C)(C)O)O6)CC[C@@]5(C)[C@]4(C)CC[C@H]3C2(C)C)COC1",
    "REPORTED RESULT": "50%"
  }
]

Turning now to a further record.
Query string: Recorded Activity of CC(C)(C)OC(=O)N1CCOC[C@H]1C(=O)N[C@H]1CC[C@]2(C)[C@H]3C[C@@H](O)[C@@H]4[C@@H]([C@]5(C)CC[C@H](C(C)(C)O)O5)CC[C@@]4(C)[C@]3(C)CC[C@H]2C1(C)C , please.
Result string: 55%

====

- ASSAY SUMMARY: Reversal of multi-drug resistance in human KVB cells assessed as increase in PTX-induced cytotoxicity by measuring cell survival at 10 uM measured after 72 hrs incubation in presence of 100 nM paclitaxel by MTT assay relative to control
- Type: functional, KBV
PROPERTY MEASURED: Activity (%)
Supply the numeric figure in %, leaving out any unit text.

Example entries and their recorded answers appear below.
[
  {
    "LINE NOTATION": "CC(C)(O)[C@H]1CC[C@@](C)([C@H]2CC[C@]3(C)[C@@H]2[C@H](O)C[C@@H]2[C@@]4(C)CC[C@H](NC(=O)[C@H]5CCN5)C(C)(C)[C@@H]4CC[C@]23C)O1",
    "REPORTED RESULT": 68
  },
  {
    "LINE NOTATION": "CC(C)(O)[C@H]1CC[C@@](C)([C@H]2CC[C@]3(C)[C@@H]2[C@H](O)C[C@@H]2[C@@]4(C)CC[C@H](NC(=O)[C@@H]5COCCN5)C(C)(C)[C@@H]4CC[C@]23C)O1",
    "REPORTED RESULT": 57
  },
  {
    "LINE NOTATION": "CC(C)(O)[C@H]1CC[C@@](C)([C@H]2CC[C@]3(C)[C@@H]2[C@H](O)C[C@@H]2[C@@]4(C)CC[C@H](NC(=O)[C@@H]5C[C@@H](F)CN5)C(C)(C)[C@@H]4CC[C@]23C)O1",
    "REPORTED RESULT": 66
  },
  {
    "LINE NOTATION": "CC(C)(O)[C@H]1CC[C@@](C)([C@H]2CC[C@]3(C)[C@@H]2[C@H](O)C[C@@H]2[C@@]4(C)CC[C@H](NC(=O)[C@@H]5CCCN5)C(C)(C)[C@@H]4CC[C@]23C)O1",
    "REPORTED RESULT": 30
  },
  {
    "LINE NOTATION": "CC(C)(C)OC(=O)N1CC[C@@H]1C(=O)N[C@H]1CC[C@]2(C)[C@H]3C[C@@H](O)[C@@H]4[C@@H]([C@]5(C)CC[C@H](C(C)(C)O)O5)CC[C@@]4(C)[C@]3(C)CC[C@H]2C1(C)C",
    "REPORTED RESULT": 27
  }
]

Turning now to a further record.
Query string: Recorded Activity of CC(C)(C)OC(=O)N1CCC[C@H](C(=O)N[C@H]2CC[C@]3(C)[C@H]4C[C@@H](O)[C@@H]5[C@@H]([C@]6(C)CC[C@H](C(C)(C)O)O6)CC[C@@]5(C)[C@]4(C)CC[C@H]3C2(C)C)C1 , please.
Result string: 47

====

Reported Activity values follow for various molecules
- ASSAY SUMMARY: Reversal of multi-drug resistance in human KVB cells assessed as increase in PTX-induced cytotoxicity by measuring cell survival at 5 uM measured after 72 hrs incubation in presence of 100 nM paclitaxel by MTT assay relative to control
- Format: functional, KBV
Supply the numeric figure in %, leaving out any unit text.

Query string: Recorded Activity of CC(C)(C)OC(=O)N1C[C@H](O)C[C@H]1C(=O)N[C@H]1CC[C@]2(C)[C@H]3C[C@@H](O)[C@@H]4[C@@H]([C@]5(C)CC[C@H](C(C)(C)O)O5)CC[C@@]4(C)[C@]3(C)CC[C@H]2C1(C)C , please.
Result string: 90

Query string: Moving on to the next molecule: CC(C)(C)OC(=O)N1CC[C@@H]1C(=O)N[C@H]1CC[C@]2(C)[C@H]3C[C@@H](O)[C@@H]4[C@@H]([C@]5(C)CC[C@H](C(C)(C)O)O5)CC[C@@]4(C)[C@]3(C)CC[C@H]2C1(C)C
Result string: 47

Query string: Moving on to the next molecule: CC(C)(O)[C@H]1CC[C@@](C)([C@H]2CC[C@]3(C)[C@@H]2[C@H](O)C[C@@H]2[C@@]4(C)CC[C@H](NC(=O)[C@H]5CCCNC5)C(C)(C)[C@@H]4CC[C@]23C)O1
Result string: 83

Query string: Moving on to the next molecule: CC(C)(O)[C@H]1CC[C@@](C)([C@H]2CC[C@]3(C)[C@@H]2[C@H](O)C[C@@H]2[C@@]4(C)CC[C@H](NC(=O)C5CNC5)C(C)(C)[C@@H]4CC[C@]23C)O1
Result string: 76

Query string: Moving on to the next molecule: CC(C)(C)OC(=O)N1CCOC[C@H]1C(=O)N[C@H]1CC[C@]2(C)[C@H]3C[C@@H](O)[C@@H]4[C@@H]([C@]5(C)CC[C@H](C(C)(C)O)O5)CC[C@@]4(C)[C@]3(C)CC[C@H]2C1(C)C
Result string: 81

Query string: Moving on to the next molecule: CC(C)(C)OC(=O)N1CC(F)(F)C[C@H]1C(=O)N[C@H]1CC[C@]2(C)[C@H]3C[C@@H](O)[C@@H]4[C@@H]([C@]5(C)CC[C@H](C(C)(C)O)O5)CC[C@@]4(C)[C@]3(C)CC[C@H]2C1(C)C
Result string: 65

Query string: Moving on to the next molecule: CC(C)(O)[C@H]1CC[C@@](C)([C@H]2CC[C@]3(C)[C@@H]2[C@H](O)C[C@@H]2[C@@]4(C)CC[C@H](NC(=O)[C@@H]5CCCN5)C(C)(C)[C@@H]4CC[C@]23C)O1
Result string: 38

Query string: Moving on to the next molecule: CC(C)(O)[C@H]1CC[C@@](C)([C@H]2CC[C@]3(C)[C@@H]2[C@H](O)C[C@@H]2[C@@]4(C)CC[C@H](NC(=O)[C@H]5C[C@@H](O)CN5)C(C)(C)[C@@H]4CC[C@]23C)O1
Result string: 95

Query string: Moving on to the next molecule: CC(C)(O)[C@H]1CC[C@@](C)([C@H]2CC[C@]3(C)[C@@H]2[C@H](O)C[C@@H]2[C@@]4(C)CC[C@H](NC(=O)CC5CNC5)C(C)(C)[C@@H]4CC[C@]23C)O1
Result string: 95

Query string: Moving on to the next molecule: CC(C)(C)OC(=O)N1CC(C(=O)N[C@H]2CC[C@]3(C)[C@H]4C[C@@H](O)[C@@H]5[C@@H]([C@]6(C)CC[C@H](C(C)(C)O)O6)CC[C@@]5(C)[C@]4(C)CC[C@H]3C2(C)C)C1
Result string: 80

Query string: Moving on to the next molecule: CC(C)(O)[C@H]1CC[C@@](C)([C@H]2CC[C@]3(C)[C@@H]2[C@H](O)C[C@@H]2[C@@]4(C)CC[C@H](NC(=O)[C@@H]5CCC(=O)O5)C(C)(C)[C@@H]4CC[C@]23C)O1
Result string: 95

====

- ASSAY SUMMARY: Reversal of multi-drug resistance in human KVB cells assessed as increase in PTX-induced cytotoxicity by measuring cell survival at 10 uM measured after 72 hrs incubation in presence of 100 nM paclitaxel by MTT assay relative to control
- Format: functional, KBV
Is Activity at least 60%? Then TRUE. If not, FALSE.

Observe how each entry below is paired with its result.
[
  {
    "COMPOUND": "CC(C)(C)OC(=O)N1CCCC[C@@H]1C(=O)N[C@H]1CC[C@]2(C)[C@H]3C[C@@H](O)[C@@H]4[C@@H]([C@]5(C)CC[C@H](C(C)(C)O)O5)CC[C@@]4(C)[C@]3(C)CC[C@H]2C1(C)C",
    "CATEGORY LABEL": "FALSE"
  },
  {
    "COMPOUND": "C[S+](C)[O-] [DIMETHYL SULFOXIDE]",
    "CATEGORY LABEL": "TRUE"
  },
  {
    "COMPOUND": "CC(C)(O)[C@H]1CC[C@@](C)([C@H]2CC[C@]3(C)[C@@H]2[C@H](O)C[C@@H]2[C@@]4(C)CC[C@H](NC(=O)[C@H]5CCCCN5)C(C)(C)[C@@H]4CC[C@]23C)O1",
    "CATEGORY LABEL": "FALSE"
  },
  {
    "COMPOUND": "CC(C)(O)[C@H]1CC[C@@](C)([C@H]2CC[C@]3(C)[C@@H]2[C@H](O)C[C@@H]2[C@@]4(C)CC[C@H](NC(=O)CC5CNC5)C(C)(C)[C@@H]4CC[C@]23C)O1",
    "CATEGORY LABEL": "TRUE"
  },
  {
    "COMPOUND": "CC(C)(C)OC(=O)N1CC(CC(=O)N[C@H]2CC[C@]3(C)[C@H]4C[C@@H](O)[C@@H]5[C@@H]([C@]6(C)CC[C@H](C(C)(C)O)O6)CC[C@@]5(C)[C@]4(C)CC[C@H]3C2(C)C)C1",
    "CATEGORY LABEL": "FALSE"
  }
]

Query string: I'd appreciate it if you could say whether CC(C)(C)OC(=O)N1CC(C(=O)N[C@H]2CC[C@]3(C)[C@H]4C[C@@H](O)[C@@H]5[C@@H]([C@]6(C)CC[C@H](C(C)(C)O)O6)CC[C@@]5(C)[C@]4(C)CC[C@H]3C2(C)C)C1 has Activity at least equal to 60%.
Result string: FALSE

Query string: Moving on to the next compound: CC(C)(O)[C@H]1CC[C@@](C)([C@H]2CC[C@]3(C)[C@@H]2[C@H](O)C[C@@H]2[C@@]4(C)CC[C@H](NC(=O)[C@H]5C[C@@H](O)CN5)C(C)(C)[C@@H]4CC[C@]23C)O1
Result string: TRUE

Query string: Moving on to the next compound: CC(C)(C)OC(=O)N1CC[C@@H](C(=O)N[C@H]2CC[C@]3(C)[C@H]4C[C@@H](O)[C@@H]5[C@@H]([C@]6(C)CC[C@H](C(C)(C)O)O6)CC[C@@]5(C)[C@]4(C)CC[C@H]3C2(C)C)C1
Result string: FALSE

Query string: Moving on to the next compound: CC(C)(O)[C@H]1CC[C@@](C)([C@H]2CC[C@]3(C)[C@@H]2[C@H](O)C[C@@H]2[C@@]4(C)CC[C@H](NC(=O)[C@@H]5CC(F)(F)CN5)C(C)(C)[C@@H]4CC[C@]23C)O1
Result string: TRUE

Query string: Moving on to the next compound: CC(C)(O)[C@H]1CC[C@@](C)([C@H]2CC[C@]3(C)[C@@H]2[C@H](O)C[C@@H]2[C@@]4(C)CC[C@H](NC(=O)[C@H]5CCC(=O)N5)C(C)(C)[C@@H]4CC[C@]23C)O1
Result string: TRUE
